// provenance: paper PMC9838217

Kindly supply the reported binding signal values for the records listed here.
Target: SALL4 ZFC4 WT (HT-SELEX) (Mus musculus, UniProt Q8BX22 870-940)
Sequence: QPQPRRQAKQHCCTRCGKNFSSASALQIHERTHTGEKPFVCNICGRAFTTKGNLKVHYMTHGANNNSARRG
Assay: HT-SELEX; high values mean tight binding
Details: protein: recombinant; vector His6-GST; dsDNA, one strand shown
Answer with the value and then the unit.

# input Tell me the measured binding signal of `GATGTA` , please.
# output 1.36 fold-change vs cycle 0

# input Can you share its binding signal? I mean this sequence: `CCCGAA`
# output 0.314 fold-change vs cycle 0

# input What measured binding signal goes with `GAGGAA` ?
# output 0.874 fold-change vs cycle 0

# input binding signal for `AAGACG` ?
# output 0.635 fold-change vs cycle 0

# input Please give the measured binding signal for this sequence: `ACTGCA`
# output 0.647 fold-change vs cycle 0

# input Quick check: binding signal of `CCAAAA` ?
# output 0.911 fold-change vs cycle 0

# input # binding signal lookup, item `CAAAAC`
# output 0.936 fold-change vs cycle 0

# input Requested field: binding signal. Item: `GCTCAC`
# output 0.361 fold-change vs cycle 0

# input Which binding signal value belongs to `AAGTAT` ?
# output 2.21 fold-change vs cycle 0

# input Given `ATACAG` , state its recorded binding signal.
# output 1.33 fold-change vs cycle 0

# input Requested field: binding signal. Item: `CTCCAG`
# output 0.482 fold-change vs cycle 0

# input Give its binding signal value. Item: `ATTTTG`
# output 1.66 fold-change vs cycle 0

# input Return reported binding signal; argument: `ATCATA`
# output 2.91 fold-change vs cycle 0

# input State the recorded binding signal for this entry: `AACTGA`
# output 1.35 fold-change vs cycle 0

# input What value of measured binding signal is listed for `TGCGAA` ?
# output 0.447 fold-change vs cycle 0

# input Which binding signal is reported for this sequence? `CCTAAC`
# output 0.883 fold-change vs cycle 0

# input Any idea what its binding signal is? The sequence is `GATACC`
# output 0.884 fold-change vs cycle 0

# input // query binding signal value for entry `CAATTA`
# output 1.91 fold-change vs cycle 0

# input Which binding signal reading was recorded for the sequence `AAAGTA` ?
# output 1.92 fold-change vs cycle 0

# input Entry under review: `CTAAAC` . Reported binding signal?
# output 1.16 fold-change vs cycle 0

# input What value of binding signal has been recorded for this entry: `GGATAC`
# output 0.871 fold-change vs cycle 0

# input Find the recorded binding signal belonging to `AAGATC` and report it.
# output 1.25 fold-change vs cycle 0

# input For the sequence `CCGGAA` , what binding signal is on record?
# output 0.325 fold-change vs cycle 0

# input Requested read-out: binding signal. Entry: `CACCGA`
# output 0.338 fold-change vs cycle 0

# input Suppose we examine the sequence `AGTCCG` ; what binding signal value has been reported?
# output 0.333 fold-change vs cycle 0

# input Entry under review: `AACTAG` . Reported binding signal?
# output 1.31 fold-change vs cycle 0

# input Need binding signal, item `TTGAAA`
# output 1.92 fold-change vs cycle 0

# input Query: binding signal; subject: `GCAATA`
# output 1.12 fold-change vs cycle 0

# input Look up binding signal for this sequence: `ATCCGA`
# output 0.684 fold-change vs cycle 0

# input Quick one: binding signal of `ATAGAC` ?
# output 1.2 fold-change vs cycle 0

# input Given `ACTCAT` , state its recorded binding signal.
# output 1.52 fold-change vs cycle 0

# input Could you share which binding signal value was measured for `GTTTTA` ?
# output 1.65 fold-change vs cycle 0

# input Fill blank: measured binding signal of the sequence `CTAGTC` is ____.
# output 0.766 fold-change vs cycle 0

# input sequence: `TAGATA` ; wanted: its binding signal
# output 2.23 fold-change vs cycle 0

# input Requested field: binding signal. Item: `ACACCT`
# output 0.834 fold-change vs cycle 0

# input Looking for the measured binding signal of `CCGATA` , can you help?
# output 0.671 fold-change vs cycle 0

# input Entry `ATATTA` : reported binding signal = ?
# output 4.97 fold-change vs cycle 0

# input Consider the sequence `GCATAA` and give its measured binding signal.
# output 1.13 fold-change vs cycle 0

# input Which binding signal is reported for this sequence? `GGGTAC`
# output 0.482 fold-change vs cycle 0

# input Reported binding signal, sequence `CCATAA` : ____
# output 1.51 fold-change vs cycle 0

# input What does the record list as binding signal for `AAGGCA` ?
# output 0.566 fold-change vs cycle 0

# input Requested read-out: binding signal. Entry: `AAATGC`
# output 0.879 fold-change vs cycle 0

# input Which binding signal is reported for this sequence? `AATGCA`
# output 1.12 fold-change vs cycle 0

# input Look up binding signal for this sequence: `ATGATA`
# output 2.72 fold-change vs cycle 0

# input Field request: binding signal | item: `ATCCTA`
# output 1.48 fold-change vs cycle 0

# input Look at this sequence and give its reported binding signal. `CTTTAA`
# output 1.84 fold-change vs cycle 0

# input Can you look up the measured binding signal of `ATACCG` for me?
# output 0.646 fold-change vs cycle 0

# input Item under review: `AGACTG` . Reported binding signal?
# output 0.764 fold-change vs cycle 0

# input May I ask what binding signal has been recorded for `GAGTAC` ?
# output 0.903 fold-change vs cycle 0
